- system: human PR-B (Homo sapiens, UniProt P06401)
- Construct: expressed in transfected cells; host or cells: CV-1 cells (African green monkey kidney fibroblasts), transient transfection
- Sequence (P06401 1-933): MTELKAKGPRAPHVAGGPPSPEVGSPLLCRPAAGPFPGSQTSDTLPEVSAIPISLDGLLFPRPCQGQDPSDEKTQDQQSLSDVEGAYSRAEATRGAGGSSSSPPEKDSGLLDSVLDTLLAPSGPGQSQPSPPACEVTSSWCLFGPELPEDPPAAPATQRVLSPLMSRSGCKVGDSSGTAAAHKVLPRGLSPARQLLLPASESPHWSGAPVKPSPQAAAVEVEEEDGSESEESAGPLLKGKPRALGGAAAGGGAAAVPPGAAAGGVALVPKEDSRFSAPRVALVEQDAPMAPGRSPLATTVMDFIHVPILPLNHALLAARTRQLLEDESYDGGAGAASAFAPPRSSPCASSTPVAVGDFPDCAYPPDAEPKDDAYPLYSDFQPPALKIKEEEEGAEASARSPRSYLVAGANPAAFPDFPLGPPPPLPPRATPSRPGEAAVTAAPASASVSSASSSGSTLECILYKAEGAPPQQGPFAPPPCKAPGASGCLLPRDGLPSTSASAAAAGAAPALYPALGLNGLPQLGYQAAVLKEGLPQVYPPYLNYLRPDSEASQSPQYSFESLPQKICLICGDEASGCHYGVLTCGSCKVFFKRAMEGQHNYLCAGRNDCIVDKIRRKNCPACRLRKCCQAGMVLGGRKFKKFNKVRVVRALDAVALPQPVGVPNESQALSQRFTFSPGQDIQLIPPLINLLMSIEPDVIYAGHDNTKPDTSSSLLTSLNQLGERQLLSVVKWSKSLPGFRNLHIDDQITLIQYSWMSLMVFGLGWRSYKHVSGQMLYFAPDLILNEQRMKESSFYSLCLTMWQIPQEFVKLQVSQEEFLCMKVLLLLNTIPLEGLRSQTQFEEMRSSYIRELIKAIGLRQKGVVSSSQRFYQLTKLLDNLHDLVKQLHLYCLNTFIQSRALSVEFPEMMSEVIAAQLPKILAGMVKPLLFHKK
- protocol details: Co-transfection assay, PR agonist activity;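 also: CV-1 cells (African green monkey kidney) co-transfected with receptor plasmid and hormone-responsive firefly luciferase reporter, agonism read as compound-dependent rise in luciferase signal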
- Type: cell-based
- condition context: CV-1, read-out: PR Agonist CV-1 Cells Efficacy (%)
assay endpoint: Emax

| molecule | recorded value |
| --- | --- |
| CC1=CC(C)(C)Nc2cc(C)c3c(c21)/C(=C/c1ccccc1)Oc1ccc(F)cc1-3 [Compound 377] | 101% |
| CC1=CC(C)(C)Nc2ccc(-c3csc(C#N)c3)cc21 [Compound 452] | 119% |
| CCCO[C@@H]1[C@@H](C)c2c(ccc3c2[C@H](c2ccc(Cl)cc2)Oc2ccccc2-3)NC1(C)C (relative stereo) [Compound 400] | < 20% |
| CC(=O)[C@H]1CC[C@H]2[C@@H]3CCC4=CC(=O)CC[C@]4(C)[C@H]3CC[C@]12C [Prog, progesterone, reference compound] | 100% |
